The reader will find reported INHIBITION values listed item by item below.
# Test system: Plasmodium berghei
# method: Screen against P. berghei liver stage (PbLuc), transformed with Luciferase, at 2uM
# Format: functional, HepG2
# cond: tested at 2 uM
About 2,700 (4%) of roughly 68,000 compounds showed an effect of 50% or more. This is one part of a sample in which strong results are shown more often than they occur.
Just the number in %, nothing appended.

compound	unit-abbrev	INHIBITION
COCCN1C[C@H]2CCN(C(C)=O)CC[C@H]2S1(=O)=O	%	43.05
C[C@@H]1C[C@H]2CN(C(=O)C3=CCCCC3)C[C@H]2O1	%	28.2
CCN1C[C@H]2CCN(C(=O)NC)CC[C@H]2S1(=O)=O	%	-11.73
Nc1nc(C(=O)NCC2CCC3(CCNCC3)CO2)cs1 (stereo not given)	%	-51.85

Let us move to another entry and its INHIBITION.
Request: Could you tell me which INHIBITION is on file for `CCNc1nc2c(s1)C(=O)CN(C(=O)NCCc1ccccc1)C2` ?
Response: 12.31

###

Entries and their INHIBITION values follow.
# System: Plasmodium berghei
# method: Screen against P. berghei liver stage (PbLuc), transformed with Luciferase, at 2uM
# Type: functional, HepG2
# cond: tested at 2 uM
Out of some 68,000 compounds screened, about 2,700 (4%) showed an effect of 50% or more. This is one part of a sample in which strong results are shown more often than they occur.
Give your result in % as a bare value.

Sample answers from the record:
compound	tgt	observed-property	unit-abbrev	experimental-result
O=C([C@H]1COC[C@H]2CN(C3CCOCC3)C[C@H]21)N1CCCO1	Plasmodium berghei	INHIBITION	%	-17.39
O=C(Cn1cnc(-c2cccs2)cc1=O)Nc1cccnc1	Plasmodium berghei	INHIBITION	%	-8.7
O=C([C@H]1COC[C@H]2CN(C3CCOCC3)C[C@H]21)N1CCCCO1	Plasmodium berghei	INHIBITION	%	-3.25

Request: Query (compound): COc1ncccc1C1CC(=O)NCc2nc3ccccn3c21 (stereo unspecified) ; field requested: INHIBITION
Response: 29.41

Request: Would you kindly share the measured INHIBITION for `COCCNCc1cc2ccc(C)c(C)c2[nH]c1=O` ?
Response: -21.9

Request: Query: INHIBITION; subject: Cc1cnn(CC2CN(Cc3nc4ccccc4s3)CCO2)c1 (stereo unspecified)
Response: 53.98

Request: What value of measured INHIBITION is listed for COc1ccc(C2CC(=O)NCc3nc4ccccn4c32)cn1 (stereo unspecified) ?
Response: 54.3

Request: Name the reported INHIBITION value associated with the compound N#Cc1cccc(CN2CCC3(CC(C(=O)NCC4CC4)=NO3)C2)c1 (stereo unspecified)
Response: 7.35

Request: For c1ccc2sc(CN3CCOC(Cn4cccn4)C3)nc2c1 (stereo unspecified) , what is its reported INHIBITION?
Response: -88.54

Request: Item under review: `O=C([C@@H]1COC[C@H]2CN(C3CCOCC3)C[C@H]21)N1CCCCO1` . Reported INHIBITION?
Response: 59.77

Request: Recorded INHIBITION of `CC(=O)c1cccc(NC(=O)Cn2nc(-c3cccs3)oc2=O)c1` , please.
Response: 51.94

###

# Tested on: Plasmodium berghei
# method: Screen against P. berghei liver stage (PbLuc), transformed with Luciferase, at 2uM
# Assay type: functional, HepG2
# cond: tested at 2 uM
The campaign covered roughly 68,000 compounds. About 2,700 (4%) showed an effect of 50% or more. This excerpt belongs to a sample that is enriched for strong results.
// values below are reported INHIBITION
Hi! Could you send only the number? It should be in %, unit omitted.

compound	experimental-result
Cc1cnc(N2CCc3ncnc(N4CCN(C)CC4)c3CC2)nc1	17.57
CCC(C)N(Cc1ccsc1)C(=O)c1ccc2[nH]nnc2c1 (stereo unspecified)	38.24
COc1ccc(OC)c(CN(C)c2ncc(S(N)(=O)=O)s2)c1	-28.18
Cc1nc(O)c2nnn(C[C@H]3CCCN3C(=O)C(C)(C)C)c2n1	-47.12
Cc1cc(C(=O)N2CCc3c(ncn3CCc3ccccc3)C2)on1	50.59

Request: Recorded INHIBITION of `Cc1nc(O)c2nnn(C[C@H]3CCCN3C(=O)CCC3CCCC3)c2n1` , please.
Response: 6.57

Request: What does the record list as INHIBITION for `Cc1cc(C)c(C(=O)N2CCc3c(ncn3CCc3ccccc3)C2)[nH]1` ?
Response: 0.51

Request: Could you tell me which INHIBITION is on file for `COc1ccc(OC)c(CCNc2ncc(S(N)(=O)=O)s2)c1` ?
Response: -0.95

###

# Test system: Plasmodium berghei
# method: Screen against P. berghei liver stage (PbLuc), transformed with Luciferase, at 2uM
# Type: functional, HepG2
# cond: tested at 2 uM
Out of some 68,000 compounds screened, about 2,700 (4%) showed an effect of 50% or more. The sample as a whole holds a higher share of strong results than the screen did.
observed-property: INHIBITION (%)
All answers are understood in %, so give the number only.

Previously resolved entries follow.
compound	tgt	unit-abbrev	experimental-result
CS(=O)(=O)c1ccc(Cl)c(NC(=O)NCCC2=CCCCC2)c1	Plasmodium berghei	%	36.66
CC(O)C1CCN(C(=O)Nc2nc(-c3ccccc3)ns2)CC1 (centres undefined)	Plasmodium berghei	%	-65.84

Request: Which measured INHIBITION value corresponds to `COCCN1C(=O)[C@@H]2CC[C@H]1CN(c1ncccn1)C2` ?
Response: 57.34

Request: So what's the measured INHIBITION for this one? CS(=O)(=O)NCCCN1CCCC1c1ccsc1 (centres undefined)
Response: 51.46

Request: Report INHIBITION for `COCCN1C(=O)[C@@H]2CC[C@H]1CN(c1nccc(C)n1)C2` please.
Response: -1.56

Request: Looking for the measured INHIBITION of CNC(=O)C(NC(=O)c1nccn2ccnc12)c1ccc(F)c(F)c1 (centres undefined) , can you help?
Response: 29.53

Request: What measured INHIBITION goes with CCC(O)C1CCN(C(=O)Nc2nc(-c3ccccc3)ns2)CC1 (centres undefined) ?
Response: 57.92

Request: What value of INHIBITION has been reported for the following compound? CCc1cc(N(C)CCC(O)c2ccccc2)n2nccc2n1 (centres undefined)
Response: 53.12

###

# Tested on: Plasmodium berghei
# method: Screen against P. berghei liver stage (PbLuc), transformed with Luciferase, at 2uM
# Format: functional, HepG2
# cond: tested at 2 uM
Out of some 68,000 compounds screened, about 2,700 (4%) showed an effect of 50% or more. This is one part of a sample in which strong results are shown more often than they occur.
observed-property: INHIBITION (%)
Give the quantity in %, number only.

Past entries and their recorded results:
smi	observed-property	unit-abbrev	experimental-result
COCC(=O)N1CCC2(CC1)COCCN2Cc1ccc(F)cc1	INHIBITION	%	-5.65
COCCN(CCOC)c1ncccc1Cl	INHIBITION	%	67.7
COCCN(CCOC)c1ncc(C#N)cc1Cl	INHIBITION	%	1.42

Request: Which INHIBITION value is on record for `CCCn1cnc2c1CN(S(=O)(=O)Cc1ccccc1)[C@H](C(=O)OC)C2` ?
Response: 60.6

Request: Bench note: what INHIBITION did `CN1CCN(C(=O)c2cccn2C)c2ccccc2C1` show?
Response: -9.98

Request: For the compound `COC(=O)[C@@H]1Cc2ncn(C)c2CN1S(=O)(=O)Cc1ccccc1` , what INHIBITION is on record?
Response: 26.55

###

Measured INHIBITION values are reported for all entries that follow.
# Test system: Plasmodium berghei
# method: Screen against P. berghei liver stage (PbLuc), transformed with Luciferase, at 2uM
# Assay type: functional, HepG2
# cond: tested at 2 uM
The campaign covered roughly 68,000 compounds. About 2,700 (4%) showed an effect of 50% or more. What follows is part of a selection rich in strong results, with near analogues and random picks from the rest.
The reply should contain only the number, in %.

Known INHIBITION results, listed for orientation:
molecule	tgt	experimental-result
CCc1noc(C(C)N(C)CC(=O)Nc2ccc(Br)cc2C)n1 (stereo unspecified)	Plasmodium berghei	53.57
O=C(O)[C@@H]1CN(Cc2c[nH]c(CC3CCCC3)n2)C[C@H]1c1ccncc1	Plasmodium berghei	25.35
COc1cc(-n2cccc2)c(Cl)cc1C(=O)NS(C)(=O)=O	Plasmodium berghei	1.06
COc1ccc(Br)cc1Cn1nc(C(N)=O)ccc1=O	Plasmodium berghei	-21.09
CCc1noc(C(C)N(C)CC(=O)Nc2c(C)cccc2C)n1 (stereo unspecified)	Plasmodium berghei	32.81

Request: Query: INHIBITION; subject: `CN(C)S(=O)(=O)c1csc(C(=O)N2CCSCC2)c1`
Response: 68.33

Request: Quick check: INHIBITION of `Cc1nn(C)c(C)c1C(=O)NN1CCOCC1` ?
Response: 27.88

Request: Name the recorded INHIBITION for `CCN(CC)S(=O)(=O)c1csc(C(=O)N2CCC(C(N)=O)CC2)c1` .
Response: 14.27

Request: What value of measured INHIBITION is listed for `CCC[C@@H]1CN(Cc2c[nH]c(CC3CCCC3)n2)C[C@H]1C(=O)O` ?
Response: 5.93

Request: Report INHIBITION for CCc1noc(C(C)N(C)CC(=O)Nc2cccc(C)c2C)n1 (stereo unspecified) please.
Response: 1.73

Request: Query: INHIBITION; subject: Cc1nc2n(n1)CC(Nc1nc(C(F)(F)F)nc3ccccc13)CC2 (stereo unspecified)
Response: 19.12
